self-cleavage values, listed per item
B1: LINE1-full (parent)
chain: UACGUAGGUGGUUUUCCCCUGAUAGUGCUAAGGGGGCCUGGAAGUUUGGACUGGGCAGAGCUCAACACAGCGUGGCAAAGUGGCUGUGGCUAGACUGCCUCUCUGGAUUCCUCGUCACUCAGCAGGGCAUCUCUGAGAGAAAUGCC

- Variants of: B1
- Assay method text: self-cleavage, relative activity (ratio to wild type); higher = more cleavage; in vitro, sequencing; the parent is a self-cleaving ribozyme

Reference set, count: 3
U13C A22G
1.11
C37U A142G
1.52
G125A U143C
0.64

Q. Would you kindly share the measured self-cleavage for A50U A59G ?
A. 0.04

Q. Would you kindly share the measured self-cleavage for C84U A141G ?
A. 0.14
